What Ki was measured for each of the following?
# system: Rat A1 AR (Rattus norvegicus, UniProt P25099)
# Sequence (P25099 1-326): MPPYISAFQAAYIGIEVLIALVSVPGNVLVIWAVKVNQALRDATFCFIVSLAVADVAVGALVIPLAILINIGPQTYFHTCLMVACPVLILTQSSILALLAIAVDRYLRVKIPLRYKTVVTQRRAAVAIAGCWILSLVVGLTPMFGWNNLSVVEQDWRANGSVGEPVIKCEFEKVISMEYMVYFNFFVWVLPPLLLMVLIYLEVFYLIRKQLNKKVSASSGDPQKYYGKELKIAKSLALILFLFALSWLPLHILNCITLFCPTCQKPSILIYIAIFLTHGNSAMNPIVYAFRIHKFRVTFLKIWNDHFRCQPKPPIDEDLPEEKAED

C#CCn1c(=O)c2c(nc(C#Cc3ccc(OC)cc3)n2C)n(C)c1=O | > 10000 nM
C#CCn1c(=O)c2c(nc(C#Cc3ccc(OC)c(OC)c3)n2C)n(CCN(C)C)c1=O [drawing 489] | 810 nM
C#CCn1c(=O)c2c(nc(C#Cc3cccc(OC)c3)n2C)n(CC=C)c1=O [drawing 490] | > 1000 nM

Dear colleague, could you send me Ki for each of the items below? Thanks.
1. C#CCn1c(=O)c2c(nc(C#Cc3ccsc3)n2C)n(CC)c1=O [drawing 510]
2. C#CCn1c(=O)c2c(nc(C#Cc3ccc4c(c3)OCO4)n2C)n(C)c1=O [drawing 476]
3. C#CCn1c(=O)c2c(nc(C#Cc3ccc(OC)c(OC)c3)n2C)n(Cc2cccs2)c1=O [drawing 520]
4. C#CCn1c(=O)c2c(nc(C#Cc3ccc(OC)c(OC)c3)n2C)n(CC(=O)O)c1=O
5. C#CCn1c(=O)c2c(nc(C#Cc3ccc(OC)c(OC)c3)n2C)n(CCCF)c1=O
6. C#CCn1c(=O)c2c(nc(C#Cc3cccc(OCCOC)c3)n2C)n(C)c1=O [drawing 471]

> 1000 nM
> 10000 nM
> 1000 nM
> 1000 nM
≥ 1000 nM
≥ 10000 nM

Dear colleague, could you send me Ki for each of the items below? Thanks.
1. C#CCn1c(=O)c2c(nc(C#Cc3ccc(OC)c(OC)c3)n2C)n(CC(O)CO)c1=O (centres unmarked) [drawing 537]
2. C#CCn1c(=O)c2c(nc(C#Cc3ccc(OC)c(OC)c3)n2C)n(CCCC#N)c1=O [drawing 508]
3. C#CCn1c(=O)c2c(nc(C#Cc3cccc(OC)c3)n2C)n(CCC2OCCO2)c1=O
4. C#CCn1c(=O)c2c(nc(C#Cc3ccc(OC)c(OC)c3)n2C)n(CCO)c1=O [drawing 499]
5. C#CCn1c(=O)c2c(nc(C#Cc3ccc(C)cc3)n2C)n(C)c1=O

["> 1000 nM", "> 1000 nM", "≥ 1000 nM", "> 1000 nM", "> 10000 nM"]

Dear colleague, could you send me Ki for each of the items below? Thanks.
1. C#CCn1c(=O)c2c(nc(C#Cc3cccc(OC)c3)n2C)n(CCO)c1=O [drawing 491]
2. C#CCn1c(=O)c2c(nc(C#Cc3ccc(OC)c(OC)c3)n2C)n(CC(=O)OC)c1=O [drawing 546]
3. C#CCn1c(=O)c2c(nc(C#Cc3ccc(OC)c(OC)c3)n2C)n(CC(O)CO)c1=O (centres unmarked) [drawing 493]
4. C#CCn1c(=O)c2c(nc(C#Cc3cccc(OC)c3)n2C)n(CCN(C)C)c1=O [drawing 536]
5. C#CCn1c(=O)c2c(nc(C#Cc3ccc(OC)c(F)c3)n2C)n(C)c1=O
6. C#CCn1c(=O)c2c(nc(C#Cc3ccc(OC)c(OC)c3)n2C)n(CC(C)O)c1=O (centres unmarked) [drawing 502]
7. C#Cn1c(=O)c2c(nc(C#Cc3ccc(Cl)c(Cl)c3)n2C)n(C)c1=O

1: > 1000 nM; 2: 286 nM; 3: ≥ 1000 nM; 4: > 1000 nM; 5: > 1000 nM; 6: 189 nM; 7: > 1000 nM

Dear colleague, could you send me Ki for each of the items below? Thanks.
1. C#CCn1c(=O)c2c(nc(C#Cc3ccc(OC)c(OC)c3)n2C)n(C(C)C(C)=O)c1=O (centres unmarked) [drawing 524]
2. C#CCn1c(=O)c2c(nc(C#Cc3cccc(OC)c3)n2C)n(CC(O)CO)c1=O (centres unmarked) [drawing 492]

157 nM
> 1000 nM
